- target or test system: HLA-C0801 (Homo sapiens, UniProt P10321, A176T/A330V/A97T/C350S/D114A/D138N/D33Y/E201K/E299G/L171W/L218V/M285V/M309V/M331V/P208H/Q277E/Q291P/R59Q/S123Y/S140F/S297R/S48A/T329A/T363A/V319A/V328M)
- experimental details: Competitive peptide binding assay, CIR-C0801
- measurement conditions: HMy2.CIR-C0801 cells, reference Cy5-[…], class from inhibition at 5 and 15 μM, flow cytometry MFI; read-out: Binding affinity with HLA-C0801
pIC50: −log10 of the molar value. Peptide text beside a SMILES is read from it.
Could you please report measured pIC50 for the items listed next?

Below, each entry is followed by its recorded pIC50 result.
INSERT INTO results (compound, result) VALUES
  ('C[C@H](NC(=O)[C@H](CO)NC(=O)[C@H](CO)NC(=O)[C@@H](N)Cc1ccc(O)cc1)C(=O)N[C@@H](CC(N)=O)C(=O)N[C@@H](CC(N)=O)C(=O)N[C@@H](CS)C(=O)N[C@H](C(=O)N[C@@H](Cc1ccccc1)C(=O)O)[C@@H](C)O [Epitope M64] (H-YSSANNCTF-OH; N-terminus and C-terminus assumed)', '< 4.82'),
  ('CC[C@H](C)[C@H](N)C(=O)N[C@@H](C)C(=O)N[C@@H](CC(N)=O)C(=O)N[C@@H](CCC(N)=O)C(=O)N[C@@H](Cc1ccccc1)C(=O)N[C@@H](CC(N)=O)C(=O)N[C@@H](CO)C(=O)N[C@@H](C)C(=O)N[C@H](C(=O)O)[C@@H](C)CC [Epitope M37] (H-IANQFNSAI-OH; N-terminus and C-terminus assumed)', '< 4.82');

Please find the next compound below.
Briefly, pIC50 measured for CC[C@H](C)[C@H](NC(=O)[C@H](CCCNC(=N)N)NC(=O)[C@H](CC(C)C)NC(=O)[C@H](CCSC)NC(=O)[C@H](CC(N)=O)NC(=O)[C@@H]1CCCN1C(=O)[C@H](CCSC)NC(=O)[C@H](C)NC(=O)[C@@H](N)CCCNC(=N)N)C(=O)O [Epitope M30] (H-RAMPNMLRI-OH; N-terminus and C-terminus assumed) : < 4.82
